These data points were gathered from PubChem BioAssay (NCATS).

assay.comment: Viability qHTS for spleen associated tyrosine kinase inhibitor (SYKi) drug resistant MV4-11 cells (AID 1963824); further: nearly all actives have a fitted effect of over 35% in size
applied.conditions: SYKi-resistant MV4-11 viability, CellTiter-Glo, 72 h; series mostly up to 45 µM
Results filed as inconclusive are left out. The source made the active and inactive calls. The call rests on the fitted dose curve; in most records, active means well fitted cell-killing curve with a large enough effect; inconclusive means small, poorly fitted or top-dose-only effect, or effect the other way; inactive means no such curve, though single readings can be large or run the other way.
Choose the fitting class; nothing outside true (active), false (inactive) is accepted.

Worked examples follow.
[[record]]
compound = "O=C(Nc1ccc(Cl)cc1)C1CCCN(C(=O)c2cccc(-c3ccco3)c2)C1 (stereo not given)"
class = "true"

[[record]]
compound = "COC(=O)C1=CO[C@@H](O[C@@H]2O[C@H](CO)[C@@H](O)[C@H](O)[C@H]2O)[C@H]2[C@@H]1CC(OC)O[C@@H]2C (stereo not given in full)"
class = "false"

[[record]]
compound = "C/C=C(\\C)C(=O)O[C@H]1[C@@H](O[C@]2(COC(=O)CC(C)C)O[C@H](COC(=O)C(C)CC)[C@@H](OC(C)=O)[C@@H]2O)O[C@H](COC(C)=O)[C@@H](O)[C@@H]1O (stereo not given in full)"
class = "false"

[[record]]
compound = "CCCc1c2oc(C(=O)O)cc(=O)c2cc2c(=O)cc(C(=O)O)n(CC)c12"
class = "false"


Please turn your attention to the following entry.
Tell me the recorded outcome of this test for CC(C)C(C(=O)N1CCCC1C(=O)O)N(C)C(=O)C(O)Cc1ccccc1 (stereo not given) .
false
